meta.source: ChEMBL document CHEMBL3808386

Test system: U-937
Test: Inhibition of LPS-induced TNFalpha production in human U937 cells preincubated for 1 hr followed by LPS addition measured after 4 hrs by electro-chemiluminescence method
Assay type: functional, cell-based

>  <COMPOUND_SMILES>
Cc1ccc(-c2ccc3c(ccc4sc5c(c43)NC[C@@H](C)NC5=O)n2)cn1

>  <IC50>
150 nM

$$$$

----------
Molecular target: MAP kinase-activated protein kinase 2 (Homo sapiens, UniProt P49137)
Sequence (P49137 whole entry, the tested form may be a part): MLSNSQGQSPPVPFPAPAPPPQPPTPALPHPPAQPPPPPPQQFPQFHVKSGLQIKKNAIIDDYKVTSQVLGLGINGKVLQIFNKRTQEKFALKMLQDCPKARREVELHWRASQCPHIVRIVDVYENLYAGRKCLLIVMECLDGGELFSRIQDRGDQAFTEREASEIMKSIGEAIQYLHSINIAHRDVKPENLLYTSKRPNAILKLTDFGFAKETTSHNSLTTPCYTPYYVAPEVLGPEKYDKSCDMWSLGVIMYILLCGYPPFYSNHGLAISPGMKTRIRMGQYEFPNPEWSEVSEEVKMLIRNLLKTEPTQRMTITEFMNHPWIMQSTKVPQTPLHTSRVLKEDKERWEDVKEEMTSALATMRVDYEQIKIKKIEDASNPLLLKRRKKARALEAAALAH
Experiment: Inhibition of recombinant human N-terminal GST-tagged MK2 (46 to 400 residues) expressed in Escherichia coli in presence of radiolabelled ATP by radiometric assay
ASSAY_READOUT: IC50 (µM)

>  <SUBSTANCE>
H-YARAAARQARAKALNRQLGVAA-OH

>  <TEST_RESULT>
5.8

$$$$

----------
Molecular target: Bile salt export pump (Homo sapiens)
Sequence (O95342 whole entry): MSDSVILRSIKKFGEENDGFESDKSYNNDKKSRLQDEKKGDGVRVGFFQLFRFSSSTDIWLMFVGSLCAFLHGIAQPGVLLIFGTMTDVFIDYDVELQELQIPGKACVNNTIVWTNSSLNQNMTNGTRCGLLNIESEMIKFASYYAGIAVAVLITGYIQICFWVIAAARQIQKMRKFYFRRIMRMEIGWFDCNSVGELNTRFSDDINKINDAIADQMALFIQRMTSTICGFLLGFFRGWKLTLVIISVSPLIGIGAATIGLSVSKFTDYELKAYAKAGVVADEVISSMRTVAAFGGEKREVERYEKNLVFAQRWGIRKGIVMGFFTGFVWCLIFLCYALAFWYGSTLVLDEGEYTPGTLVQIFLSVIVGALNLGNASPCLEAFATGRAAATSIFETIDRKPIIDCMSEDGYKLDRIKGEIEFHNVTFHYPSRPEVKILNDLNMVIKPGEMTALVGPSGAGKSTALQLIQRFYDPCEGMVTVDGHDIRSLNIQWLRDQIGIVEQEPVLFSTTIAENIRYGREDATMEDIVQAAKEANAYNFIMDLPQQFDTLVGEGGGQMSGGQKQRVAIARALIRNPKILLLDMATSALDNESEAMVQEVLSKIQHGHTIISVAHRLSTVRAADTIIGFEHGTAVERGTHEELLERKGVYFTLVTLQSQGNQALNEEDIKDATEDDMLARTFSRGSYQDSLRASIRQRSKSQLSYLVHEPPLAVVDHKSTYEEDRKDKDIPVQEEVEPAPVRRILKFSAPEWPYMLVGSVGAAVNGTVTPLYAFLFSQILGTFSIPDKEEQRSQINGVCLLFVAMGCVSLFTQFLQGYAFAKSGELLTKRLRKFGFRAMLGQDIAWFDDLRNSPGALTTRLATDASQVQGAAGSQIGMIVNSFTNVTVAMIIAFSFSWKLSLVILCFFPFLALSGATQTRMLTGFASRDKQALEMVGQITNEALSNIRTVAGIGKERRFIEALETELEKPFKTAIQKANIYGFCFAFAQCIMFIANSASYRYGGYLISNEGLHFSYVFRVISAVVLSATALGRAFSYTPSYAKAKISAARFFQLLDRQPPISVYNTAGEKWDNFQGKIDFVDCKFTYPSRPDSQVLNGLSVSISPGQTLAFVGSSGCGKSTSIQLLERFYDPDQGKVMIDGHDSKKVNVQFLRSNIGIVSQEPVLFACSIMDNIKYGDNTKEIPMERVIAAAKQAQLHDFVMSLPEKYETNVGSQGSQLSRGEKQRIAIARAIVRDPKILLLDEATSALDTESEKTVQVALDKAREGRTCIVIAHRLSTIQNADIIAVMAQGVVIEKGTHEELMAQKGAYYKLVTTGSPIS
Test: Inhibition of human BSEP expressed in recombinant baculovirus infected insect Sf9 cell membrane vesicles assessed as [3H]-taurocholate transport preincubated for 5 mins followed by ATP or AMP addition measured after 5 mins by scintillation counting method

>  <COMPOUND_SMILES>
COCCOCc1cccc(-c2ccc3c(ccc4sc5c(c43)NC[C@@H](C)NC5=O)n2)c1

>  <READOUT_UNITS>
µM

>  <IC50>
7

$$$$
>  <COMPOUND_SMILES>
Cc1ccc(-c2ccc3c(ccc4sc5c(c43)NC[C@@H](C)NC5=O)n2)cn1

>  <READOUT_UNITS>
µM

>  <IC50>
7

$$$$

----------
Target: MAP kinase-activated protein kinase 2 (Homo sapiens, UniProt P49137)
Test: Inhibition of MK2 in human U937 cells assessed as reduction in LPS-stimulated HSP27 phosphorylation at Ser82 preincubated for 1 hr followed by LPS addition measured after 30 mins by Western blot analysis
Type: cell-based, U-937
pIC50: −log10 of the molar value.

>  <COMPOUND_SMILES>
Cc1ccc(-c2ccc3c(ccc4sc5c(c43)NC[C@@H](C)NC5=O)n2)cn1

>  <TARGET_OR_SYSTEM>
MAP kinase-activated protein kinase 2 (Homo sapiens, UniProt P49137)

>  <pIC50>
6.70

$$$$
